meta.source: the Human Domainome abundance scans (Beltran et al. 2025)

B1: DnaJ homolog subfamily C member 5, residues 16 to 77; numbered along this chain, Q9H3Z4 (parent)
chain: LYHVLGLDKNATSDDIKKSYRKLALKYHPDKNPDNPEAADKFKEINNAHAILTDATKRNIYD

- Variants of: B1
- Procedure Summary: abundance fitness (aPCA) (normalised: wild type 0, dead -1); higher = more abundant; growth selection in yeast, the domain comes from the species named
- Test Parameters: Homo sapiens
The label depends only on abundance fitness: label 1 if it is at least -0.3, label 0 if it is smaller.

Mutation: A50Y
Category Label: label 0

Q) Kindly determine if abundance fitness recorded for R21A is above or exactly -0.3.
A) label 1

Q) Decide: is the reported value of abundance fitness for D34V equal to or greater than -0.3?
A) label 0

Q) Check if abundance fitness >= -0.3 (inclusive). Item: E44W
A) label 0

Q) Would you say E44N shows abundance fitness at minimum -0.3?
A) label 1

Q) Could you please find out whether H49T has abundance fitness that meets -0.3 or exceeds it?
A) label 1
